# tgt: recombinant human autotaxin (Homo sapiens)
# Construct: full length human autotaxin with a C-terminal His tag transfected into 293E cells; His tag (C)
# testSummary: Inhibition of Autotaxin as Measured by Choline Release
# assayContext: substrate LPC 16:0 30 μM, 37° C., 1 hour; arithmetic mean
assayReadout: pIC50
Units for pIC50: none; it is -log10 of a concentration expressed in mol/L.

Note to self: pIC50 of O=C(OCC1Cn2ccnc2CO1)N1Cc2cnc(NC3Cc4ccccc4C3)nc2C1 (single isomer, unassigned; isomer 2) [Example 8] with recombinant human autotaxin (Homo sapiens) was 8.69
